These data points were gathered from ChEMBL document CHEMBL4177660.

experiment: AUC (0 to 24 hrs) in Beagle dog at 10 mg/kg, po; format: ADME, organism-based, Canis lupus familiaris; set-up: time < 24 hr, dose 10 mg/kg, route oral; details: in vivo
PROPERTY NAME: AUC(0-t) at 24 h (ng·h/mL)
I only need the number, in ng·h/mL, no unit after it.

INPUT: Consider the molecule CC1(C)Cc2c(c(C(=O)Nc3ccc(C(F)(F)F)cc3)cc3nc(Nc4c(F)cccc4Cl)[nH]c23)O1 and give its recorded AUC(0-t) at 24 h.
OUTPUT: 22000

----------
test: Cmax in Sprague-Dawley rat at 30 mg/kg, po; type: ADME, organism-based; set-up: dose 30 mg/kg, route oral; conditions: in vivo
PROPERTY NAME: Cmax

INPUT: Consider the molecule CC1(C)Cc2c(c(C(=O)Nc3ccc(C(F)(F)F)cc3)cc3nc(Nc4c(F)cccc4Cl)[nH]c23)O1 and give its recorded Cmax.
OUTPUT: 2530 ng/mL

----------
experiment: Cmax in Dunkin-Hartley guinea pig at 30 mg/kg, po; type: ADME, organism-based, Cavia porcellus; set-up: dose 30 mg/kg, route oral; details: in vivo
PROPERTY NAME: Cmax (ng/mL)
I only need the number, in ng/mL, no unit after it.

INPUT: Consider the molecule CC1(C)Cc2c(c(C(=O)Nc3ccc(C(F)(F)F)cc3)cc3nc(Nc4c(F)cccc4Cl)[nH]c23)O1 and give its recorded Cmax.
OUTPUT: 742

----------
assay: Tmax in cynomolgus monkey at 10 mg/kg, po; format: ADME, organism-based, Macaca fascicularis; conditions: in vivo
PROPERTY NAME: Tmax (h)
I only need the number, in h, no unit after it.

INPUT: Consider the compound CC1(C)Cc2c(c(C(=O)Nc3ccc(C(F)(F)F)cc3)cc3nc(Nc4c(F)cccc4Cl)[nH]c23)O1 and give its recorded Tmax.
OUTPUT: 6

----------
assay: Intrinsic solubility of the compound; type: physicochemical
PROPERTY NAME: solubility

| SMILES TEXT | PROPERTY NAME | VALUE |
| --- | --- | --- |
| CC1(C)Cc2c(c(C(=O)NCC(F)(F)C(F)(F)F)cc3nc(Nc4c(Cl)cccc4Cl)[nH]c23)O1 | solubility | Soluble |
| CC1(C)Cc2c(c(C(=O)Nc3ccc(C(F)(F)F)cc3F)cc3nc(Nc4c(Cl)cncc4Cl)[nH]c23)O1 | solubility | Soluble |
| CC1(C)Cc2c(c(C(=O)NCC3CC3)cc3nc(Nc4c(Cl)cncc4Cl)[nH]c23)O1 | solubility | Soluble |
| CC1(C)Cc2c(c(C(=O)Nc3ccc(C(F)(F)F)cc3)cc3nc(Nc4c(F)cccc4Cl)[nH]c23)O1 | solubility | Soluble |
